So I've got a bunch of binders here, and I need their MFI values.
Molecular target: T1, human GARP (glycoprotein A repetitions predominant, LRRC32) on the cell surface (human, UniProt Q14392 20-662)
T1 construct: whole, on cells; also called hGARP; free GARP
T1 sequence (looked up): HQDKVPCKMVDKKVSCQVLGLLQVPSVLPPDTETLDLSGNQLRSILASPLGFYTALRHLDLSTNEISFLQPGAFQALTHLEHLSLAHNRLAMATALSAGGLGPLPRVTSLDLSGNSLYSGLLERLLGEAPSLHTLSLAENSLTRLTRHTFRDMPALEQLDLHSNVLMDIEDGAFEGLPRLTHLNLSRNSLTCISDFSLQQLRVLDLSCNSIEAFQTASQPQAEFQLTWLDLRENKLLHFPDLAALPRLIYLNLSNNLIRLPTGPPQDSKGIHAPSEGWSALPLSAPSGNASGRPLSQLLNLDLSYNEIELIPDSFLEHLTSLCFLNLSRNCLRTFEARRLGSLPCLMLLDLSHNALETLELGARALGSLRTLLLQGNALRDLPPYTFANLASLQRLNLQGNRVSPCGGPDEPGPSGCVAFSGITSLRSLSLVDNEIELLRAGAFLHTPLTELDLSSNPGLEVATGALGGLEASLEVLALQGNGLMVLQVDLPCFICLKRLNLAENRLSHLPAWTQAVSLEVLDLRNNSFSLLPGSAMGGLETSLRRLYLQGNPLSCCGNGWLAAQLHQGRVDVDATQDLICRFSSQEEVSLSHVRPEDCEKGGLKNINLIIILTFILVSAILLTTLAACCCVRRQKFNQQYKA
Assay: FACS, Ag(+) cells, culture supernatant, 1 ug/ml
Numbers only, in MFI.

Below, each entry is followed by its recorded MFI result.
BINDER: huPIIO-1VH1VL1 (antibody, V domains shown, Humanized 4D3/PIIO-1 IgG made in Expi293 cells; also called H1L1; HuPIIO-1VH1/L1) VH: QVQLQESGPGLVKPSQTLSLTCTVSGYSITSDYAWNWIRQFPGNKLEWMGYISYSGSTSYTPSLKSRVTISRDTSKNHFSLKLSSVTAADTAVYYCAKSGGDYYGSSSYWYFDVWGQGTMVTVSS VL: DIVLTQSPSSLAVSLGERATMNCKSSQSLLNSRSQKNYLAWYQQKPGQPPKLLIYGASTRGSGVPDRFSGSGSGTDFTLTISSLQAEDVAVYYCQNDHSYPFTFGQGTKLEIKR
MFI, MFI: 25.8
//
BINDER: huPIIO-1VH4VL2 (antibody, V domains shown, Humanized IgG from Expi293, tested as culture supernatant; also called H4L2; HuPIIO-1VH4/L2) VH: DVQLQESGPGLVKPSQTLSLTCTVSGYSITSDYAWNWIRQFPGNKLEWMGYISYSGSTSYTPSLKSRITISRDTSKNHFFLQLSSVTAEDTATYYCAKSGGDYYGSSSYWYFDVWGQGTTVTVSS VL: DIVLTQSPSSLAVSLGERVTMNCKSSQSLLNSRSQKNYLAWYQQKPGQPPKLLIYGASTRGSGVPDRFSGSGSGTDFTLTISSVQAEDVAVYYCQNDHSYPFTFGQGTKLEIKR
MFI, MFI: 24.9
//
BINDER: huPIIO-1VH3VL2 (antibody, V domains shown, Humanized IgG from Expi293, tested as culture supernatant; also called H3L2) VH: DVQLQESGPGLVKPSQTLSLTCTVSGYSITSDYAWNWIRQFPGNKLEWMGYISYSGSTSYTPSLKSRITISRDTSKNHFFLKLSSVTAADTATYYCAKSGGDYYGSSSYWYFDVWGQGTTVTVSS VL: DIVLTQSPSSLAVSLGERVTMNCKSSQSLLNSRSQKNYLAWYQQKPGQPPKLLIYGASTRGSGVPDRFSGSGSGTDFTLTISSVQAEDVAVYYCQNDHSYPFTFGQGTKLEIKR
MFI, MFI: 24.9
//
BINDER: huPIIO-1VH1VL2 (antibody, V domains shown, Humanized IgG from Expi293; also called H1L2; HuPIIO-1VH1/L2) VH: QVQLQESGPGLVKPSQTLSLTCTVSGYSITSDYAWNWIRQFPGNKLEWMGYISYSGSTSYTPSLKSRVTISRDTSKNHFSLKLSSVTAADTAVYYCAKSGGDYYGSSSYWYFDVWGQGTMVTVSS VL: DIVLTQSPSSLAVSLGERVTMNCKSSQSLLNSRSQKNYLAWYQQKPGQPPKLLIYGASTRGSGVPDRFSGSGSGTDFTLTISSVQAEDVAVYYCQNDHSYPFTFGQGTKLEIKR
MFI, MFI: 25.2
//
BINDER: huPIIO-1VH3VL1 (antibody, V domains shown, Humanized IgG from Expi293, tested as culture supernatant; also called H3L1; HuPIIO-1VH3/L1) VH: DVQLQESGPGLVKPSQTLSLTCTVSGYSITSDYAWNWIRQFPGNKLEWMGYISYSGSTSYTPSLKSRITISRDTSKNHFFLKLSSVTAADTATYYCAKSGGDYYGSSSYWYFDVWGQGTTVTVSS VL: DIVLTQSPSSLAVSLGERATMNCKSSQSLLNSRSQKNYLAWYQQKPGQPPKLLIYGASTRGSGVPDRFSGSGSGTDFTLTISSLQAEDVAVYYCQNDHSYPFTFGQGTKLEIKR
MFI, MFI: 25.1
//
BINDER: huPIIO-1VH1VL3 (antibody, V domains shown, Humanized IgG from Expi293, tested as culture supernatant; also called H1L3; HuPIIO-1VH1/L3) VH: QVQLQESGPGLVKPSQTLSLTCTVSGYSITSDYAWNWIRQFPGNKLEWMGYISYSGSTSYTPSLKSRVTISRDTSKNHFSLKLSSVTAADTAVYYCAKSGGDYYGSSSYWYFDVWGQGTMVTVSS VL: DIVLTQSPSSLAVSAGERVTMSCKSSQSLLNSRSQKNYLAWYQQKPGQPPKLLIYGASTRGSGVPDRFSGSGSGTDFTLTISSVQAEDVAVYYCQNDHSYPFTFGSGTKLEIKR
MFI, MFI: 25.7
//
BINDER: huPIIO-1VH4VL3 (antibody, V domains shown, Humanized IgG from Expi293, tested as culture supernatant; also called H4L3; HuPIIO-1VH4/L3) VH: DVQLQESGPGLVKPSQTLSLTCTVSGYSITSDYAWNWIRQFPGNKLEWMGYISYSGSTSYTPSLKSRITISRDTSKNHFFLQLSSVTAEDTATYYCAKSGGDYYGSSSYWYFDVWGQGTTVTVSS VL: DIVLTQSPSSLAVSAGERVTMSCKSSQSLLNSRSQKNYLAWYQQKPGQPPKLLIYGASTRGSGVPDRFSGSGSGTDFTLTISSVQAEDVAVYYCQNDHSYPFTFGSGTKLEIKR
MFI, MFI: 26.3
//
BINDER: huPIIO-1VH4VL1 (antibody, V domains shown, Humanized IgG from Expi293, tested as culture supernatant; also called H4L1; HuPIIO-1VH4/L1) VH: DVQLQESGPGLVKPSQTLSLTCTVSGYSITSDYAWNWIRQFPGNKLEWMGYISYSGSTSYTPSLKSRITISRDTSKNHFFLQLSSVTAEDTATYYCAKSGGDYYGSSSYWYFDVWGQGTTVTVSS VL: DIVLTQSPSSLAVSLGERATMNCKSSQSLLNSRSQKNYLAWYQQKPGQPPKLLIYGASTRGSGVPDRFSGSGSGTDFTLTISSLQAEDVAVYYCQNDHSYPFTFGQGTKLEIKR
MFI, MFI: 26.2
//
BINDER: huPIIO-1VH3VL3 (antibody, V domains shown, Humanized IgG from Expi293, tested as culture supernatant; also called H3L3; HuPIIO-1VH3/L3) VH: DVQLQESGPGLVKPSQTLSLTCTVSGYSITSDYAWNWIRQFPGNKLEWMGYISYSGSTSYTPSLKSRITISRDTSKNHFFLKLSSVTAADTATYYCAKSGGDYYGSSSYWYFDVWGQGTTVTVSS VL: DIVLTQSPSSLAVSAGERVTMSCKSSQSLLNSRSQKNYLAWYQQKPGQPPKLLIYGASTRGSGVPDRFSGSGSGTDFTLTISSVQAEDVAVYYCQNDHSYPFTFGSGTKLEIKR
MFI, MFI: 25.3

Could you now consider this next binder?
Would you mind telling me what MFI value was observed for huPIIO-1VH2VL3 (antibody, V domains shown, Humanized IgG from Expi293, tested as culture supernatant; also called H2L3; HuPIIO-1VH2/L3) VH: QVQLQESGPGLVKPSQTLSLTCTVSGYSITSDYAWNWIRQFPGNKLEWMGYISYSGSTSYTPSLKSRITISRDTSKNHFFLKLSSVTAADTAVYYCAKSGGDYYGSSSYWYFDVWGQGTMVTVSS VL: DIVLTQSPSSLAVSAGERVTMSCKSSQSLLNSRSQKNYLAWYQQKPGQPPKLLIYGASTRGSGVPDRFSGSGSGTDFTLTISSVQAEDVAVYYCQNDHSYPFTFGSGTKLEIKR ?
25.6
